Details: in n-pentanol, 308.15 K
experimental_endpoint: solubility (mole fraction)
Response field accepts a number only; no unit should be typed.

Exam item: // query solubility (mole fraction) value for entry CC(C)(C)C(=O)C(Oc1ccc(Cl)cc1)n1ccnc1 (stereo unspecified)
Marked response: 0.204

----------
Details: in n-hexanol, 278.15 K
experimental_endpoint: solubility (mole fraction)
// no unit, no text: just the number

Exam item: Could you share which solubility (mole fraction) value was measured for CC(C)(C)C(=O)C(Oc1ccc(Cl)cc1)n1ccnc1 (stereo unspecified) ?
Marked response: 0.073

----------
Conditions: in n-butanol, 303.15 K
experimental_endpoint: solubility (mole fraction)
Reply with just the number.

Exam item: Look at this compound and give its reported solubility (mole fraction). CC(C)(C)C(=O)C(Oc1ccc(Cl)cc1)n1ccnc1 (stereo unspecified)
Marked response: 0.18

These data points were gathered from BigSolDB 2.1.
